Target System: Biotinylated CoV2 Spike ECD PreS-AVI protein (SARS-CoV-2, UniProt P0DTC2 14-1208)
Procedure Details: Octet binning; competitor 13C8
// binning response lookup, one value per entry
Form: value (number only, do not type unit).

Solved entries (count: 2):
{"Binder": "1E4 VHH-Fc (Fc fusion) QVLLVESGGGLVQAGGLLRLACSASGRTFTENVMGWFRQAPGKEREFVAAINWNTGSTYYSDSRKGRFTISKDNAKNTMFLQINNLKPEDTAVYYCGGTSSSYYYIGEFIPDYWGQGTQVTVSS", "binning response": 0.12}
{"Binder": "5D7 VHH-Fc (Fc fusion) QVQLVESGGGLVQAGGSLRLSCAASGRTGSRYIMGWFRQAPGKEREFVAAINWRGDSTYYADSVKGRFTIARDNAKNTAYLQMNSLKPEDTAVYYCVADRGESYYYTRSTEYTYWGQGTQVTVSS", "binning response": 0.15}

Prompt: Quick check: binning response of 15H7 VHH-Fc (Fc fusion) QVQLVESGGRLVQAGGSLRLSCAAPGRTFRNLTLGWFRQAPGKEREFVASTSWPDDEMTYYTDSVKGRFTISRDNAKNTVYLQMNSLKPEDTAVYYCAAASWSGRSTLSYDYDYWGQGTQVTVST ?
Response: 0.08
